- testedTarget: DPA1*01:03 DPB1*04:01 (Homo sapiens, UniProt P04440+P20036)
- methodNotes: biochemical
Where a SMILES comes first, the peptide text is derived from it.
quantityMeasured: IC50 (µM)
Your answer is read as µM, so omit the unit and give the number.

Observe how each entry below is paired with its result.
compound	testedTarget	unitAbbrev	IC50
CC(C)C[C@H](NC(=O)[C@H](CC(N)=O)NC(=O)[C@H](CCCCN)NC(=O)[C@@H](NC(=O)[C@H](CCCNC(=N)N)NC(=O)[C@H](CO)NC(=O)[C@H](Cc1ccc(O)cc1)NC(=O)[C@@H](NC(=O)[C@H](Cc1ccc(O)cc1)NC(=O)[C@H](Cc1ccccc1)NC(=O)[C@H](CO)NC(=O)[C@@H]1CCCN1C(=O)[C@H](CCCCN)NC(=O)[C@@H](NC(=O)[C@@H](N)CC(C)C)C(C)C)C(C)C)C(C)C)C(=O)O [Env_11] (H-LVKPSFYVYSRVKNL-OH)	DPA1*01:03 DPB1*04:01 (Homo sapiens, UniProt P04440+P20036)	µM	0.063
CC(C)C[C@H](NC(=O)[C@H](C)NC(=O)[C@@H](NC(=O)[C@H](Cc1ccccc1)NC(=O)[C@H](Cc1c[nH]c2ccccc12)NC(=O)[C@@H](N)CO)[C@@H](C)O)C(=O)N[C@H](C(=O)N[C@@H](CCC(N)=O)C(=O)N[C@@H](Cc1c[nH]cn1)C(=O)NCC(=O)N[C@@H](CCCCN)C(=O)N[C@@H](CCC(=O)O)C(=O)N[C@@H](CC(=O)O)C(=O)N[C@@H](CC(C)C)C(=O)N[C@@H](CCCCN)C(=O)O)[C@@H](C)O [Ncl_11] (H-SWFTALTQHGKEDLK-OH)	DPA1*01:03 DPB1*04:01 (Homo sapiens, UniProt P04440+P20036)	µM	35.8

Continue with the next compound.
Q: So what does the record say about IC50 for CC[C@H](C)[C@H](NC(=O)CNC(=O)[C@H](CC(=O)O)NC(=O)[C@H](CCCCN)NC(=O)[C@@H](N)CC(N)=O)C(=O)N[C@H](C(=O)N[C@@H](Cc1c[nH]c2ccccc12)C(=O)N[C@H](C(=O)N[C@@H](C)C(=O)N[C@H](C(=O)N[C@@H](CCC(=O)O)C(=O)NCC(=O)N[C@@H](C)C(=O)N[C@@H](CC(C)C)C(=O)N[C@@H](CC(N)=O)C(=O)O)[C@@H](C)O)C(C)C)[C@@H](C)CC [Ncl_26] (H-NKDGIIWVATEGALN-OH) ?
A: 8.35

###

- testedTarget: DRB3*01:01 (Homo sapiens, UniProt P01903+P79483)
- methodNotes: biochemical
Where a SMILES comes first, the peptide text is derived from it.
Recorded IC50, one value per entry.

Worked set:
molecule	observedValue
CC[C@H](C)[C@H](NC(=O)[C@H](CCCNC(=N)N)NC(=O)[C@H](CCCNC(=N)N)NC(=O)[C@@H](NC(=O)[C@H](C)NC(=O)[C@H](CCCNC(=N)N)NC(=O)[C@H](CCCNC(=N)N)NC(=O)[C@H](Cc1ccc(O)cc1)NC(=O)[C@@H](N)Cc1ccc(O)cc1)[C@@H](C)O)C(=O)N[C@@H](CCCNC(=N)N)C(=O)NCC(=O)NCC(=O)N[C@@H](CC(=O)O)C(=O)NCC(=O)N[C@@H](CCCCN)C(=O)O [Ncl_P18] (H-YYRRATRRIRGGDGK-OH)	5.09 µM
CC(C)C[C@H](NC(=O)[C@H](Cc1ccc(O)cc1)NC(=O)[C@H](Cc1ccc(O)cc1)NC(=O)[C@H](Cc1ccccc1)NC(=O)[C@H](Cc1ccc(O)cc1)NC(=O)[C@H](Cc1c[nH]c2ccccc12)NC(=O)[C@H](CCCNC(=N)N)NC(=O)[C@@H]1CCCN1)C(=O)NCC(=O)N[C@H](C(=O)NCC(=O)N1CCC[C@H]1C(=O)N[C@@H](CCC(=O)O)C(=O)N[C@@H](C)C(=O)NCC(=O)O)[C@@H](C)O [Ncl_22] (H-PRWYFYYLGTGPEAG-OH)	2.77 µM
CC[C@H](C)[C@H](NC(=O)[C@H](CCCNC(=N)N)NC(=O)[C@H](CC(C)C)NC(=O)[C@H](Cc1c[nH]cn1)NC(=O)CNC(=O)[C@@H](N)CCCNC(=N)N)C(=O)N[C@@H](C)C(=O)NCC(=O)N[C@@H](Cc1c[nH]cn1)C(=O)N[C@@H](Cc1c[nH]cn1)C(=O)N[C@@H](CC(C)C)C(=O)NCC(=O)N[C@@H](CCCNC(=N)N)C(=O)N[C@@H](CS)C(=O)N[C@@H](CC(=O)O)C(=O)O [Mem_30] (H-RGHLRIAGHHLGRCD-OH)	1.28 µM
CC[C@H](C)[C@H](NC(=O)[C@H](Cc1c[nH]cn1)NC(=O)[C@H](CCCCN)NC(=O)[C@H](CC(N)=O)NC(=O)[C@H](CC(C)C)NC(=O)[C@H](CC(C)C)NC(=O)[C@@H](NC(=O)[C@@H](NC(=O)[C@H](CCC(N)=O)NC(=O)[C@H](CC(=O)O)NC(=O)[C@H](CCCCN)NC(=O)[C@@H](N)Cc1ccccc1)C(C)C)[C@@H](C)CC)C(=O)N[C@@H](CC(=O)O)C(=O)N[C@@H](C)C(=O)N[C@@H](Cc1ccc(O)cc1)C(=O)O [Ncl_70] (H-FKDQVILLNKHIDAY-OH)	0.309 µM
CC(C)C[C@H](NC(=O)[C@H](CCC(N)=O)NC(=O)[C@H](CC(N)=O)NC(=O)[C@H](CC(C)C)NC(=O)[C@H](CCCNC(=N)N)NC(=O)[C@H](CC(=O)O)NC(=O)[C@H](CC(C)C)NC(=O)[C@H](CC(C)C)NC(=O)[C@H](CC(C)C)NC(=O)[C@H](CC(C)C)NC(=O)[C@H](C)NC(=O)[C@H](CC(C)C)NC(=O)[C@H](C)NC(=O)[C@H](C)NC(=O)[C@@H](N)CC(=O)O)C(=O)O [Ncl_44] (H-DAALALLLLDRLNQL-OH)	0.085 µM

// moving on: another record for IC50
Q: Look up IC50 for this molecule: CC[C@H](C)[C@H](NC(=O)[C@H](CCC(=O)O)NC(=O)[C@@H](N)CCCCN)C(=O)N[C@H](C(=O)N[C@H](C(=O)N[C@@H](C)C(=O)N[C@H](C(=O)N[C@@H](CO)C(=O)N[C@@H](CCCNC(=N)N)C(=O)N[C@H](C(=O)N[C@@H](CC(C)C)C(=O)N[C@@H](CO)C(=O)N[C@@H](Cc1ccc(O)cc1)C(=O)N[C@@H](Cc1ccc(O)cc1)C(=O)N[C@@H](CCCCN)C(=O)O)[C@@H](C)O)[C@@H](C)O)C(C)C)[C@@H](C)O [Mem_34] (H-KEITVATSRTLSYYK-OH)
A: 5.96 µM
